Attribution: paper PMC10257182

test system: non-senescent control IMR90 ER:RAS cells; assay: Nuclei count (Hoechst, high content imaging) senolytic assay, OIS model, non-senescent control cells; assay type: cell-based, human; details: Homo sapiens, IMR-90, 72 h, Control, log (dose) [M] -6, 72 h, mean n=3 (Fig 3C); read-out: Mean % Cell Survival
Where a name gives a salt, the structure may show the parent alone.
Test Readout: viability at 1 µM (%)
Just the number please, in %, no unit attached.

Compound	Unit Of Measure	viability at 1 µM
CC[C@]1(O)C[C@@H]2CN(CCc3c([nH]c4ccccc34)[C@@](C(=O)OC)(c3cc4c(cc3OC)N(C)[C@H]3[C@@](O)(C(=O)OC)[C@H](OC(C)=O)[C@]5(CC)C=CCN6CC[C@]43[C@@H]65)C2)C1 [Vinblastine sulfate, vinblastine sulfate, reference compound]	%	76.4

Field viability at 1 µM (system: non-senescent control IMR90 ER:RAS cells) for entry Cc1cnc(C(=O)N[C@H]2CCCCC/C=C\[C@@H]3C[C@@]3(C(=O)NS(=O)(=O)C3CC3)NC(=O)[C@@H]3C[C@@H](Oc4nc5ccccc5c5ccccc45)CN3C2=O)cn1 [Paritaprevir, paritaprevir, reference compound] = 78.8

* * *

test system: senescent A549 cells (etoposide-induced); experiment: Nuclei count senolytic assay, therapy-induced senescence (TIS) model, senescent cells; format: cell-based, human; conditions: Homo sapiens, A549; log (dose) [M] -6.33; Senescent cells; mean; read-out: Mean % Cell Survival
Where a name gives a salt, the structure may show the parent alone.
Test Readout: viability at 0.468 µM
Please make sure the unit comes right after the number.

Worked set:
Compound	viability at 0.468 µM
CO[C@H]1C[C@H](O[C@H]2CC[C@@]3(C)[C@H](CC[C@@H]4[C@@H]3CC[C@]3(C)[C@@H](C5=CC(=O)OC5)[C@@H](OC(C)=O)C[C@]43O)C2)O[C@@H](C)[C@@H]1O	1.38%
CC[C@]1(O)C[C@@H]2CN(CCc3c([nH]c4ccccc34)[C@@](C(=O)OC)(c3cc4c(cc3OC)N(C)[C@H]3[C@@](O)(C(=O)OC)[C@H](OC(C)=O)[C@]5(CC)C=CCN6CC[C@]43[C@@H]65)C2)C1 [Vinblastine sulfate, vinblastine sulfate, reference compound]	92.1%
CO[C@H]1C[C@@H]2CC[C@@H](C)[C@@](O)(O2)C(=O)C(=O)N2CCCC[C@H]2C(=O)O[C@H]([C@H](C)C[C@@H]2CC[C@@H](OP(C)(C)=O)[C@H](OC)C2)CC(=O)[C@H](C)/C=C(\C)[C@@H](O)[C@@H](OC)C(=O)[C@H](C)C[C@H](C)/C=C/C=C/C=C/1C [Ridaforolimus, ridaforolimus, reference compound]	113%
CO[C@H]1C[C@@H]2CC[C@@H](C)[C@@](O)(O2)C(=O)C(=O)N2CCCC[C@H]2C(=O)O[C@H]([C@H](C)C[C@@H]2CC[C@H](n3cnnn3)[C@H](OC)C2)CC(=O)[C@H](C)/C=C(\C)[C@@H](O)[C@@H](OC)C(=O)[C@H](C)C[C@H](C)/C=C/C=C/C=C/1C [Zotarolimus, zotarolimus, reference compound]	130%
O=c1c(O)c(-c2ccc(O)cc2)oc2c(O)c(O)cc(O)c12	80.2%

Field viability at 0.468 µM (system: senescent A549 cells (etoposide-induced)) for entry COC[C@H]1C[C@@H](c2nc(-c3ccc4c(c3)COc3cc5c(ccc6nc([C@@H]7CC[C@H](C)N7C(=O)[C@@H](NC(=O)OC)C(C)C)[nH]c65)cc3-4)c[nH]2)N(C(=O)[C@H](NC(=O)OC)c2ccccc2)C1 [Velpatasvir, velpatasvir, reference compound] = 122%

Field viability at 0.468 µM (system: senescent A549 cells (etoposide-induced)) for entry O=c1oc2c(O)c(O)cc3c(=O)oc4c(O)c(O)cc1c4c23 = 193%

Field viability at 0.468 µM (system: senescent A549 cells (etoposide-induced)) for entry Cc1cnc(C(=O)N[C@H]2CCCCC/C=C\[C@@H]3C[C@@]3(C(=O)NS(=O)(=O)C3CC3)NC(=O)[C@@H]3C[C@@H](Oc4nc5ccccc5c5ccccc45)CN3C2=O)cn1 [Paritaprevir, paritaprevir, reference compound] = 112%

* * *

system: non-senescent control A549 cells; assay: Nuclei count senolytic assay, TIS model, non-senescent control cells; format: cell-based, human; conditions: Homo sapiens, A549; log (dose) [M] -5.66; Control cells; mean; read-out: Mean % Cell Survival
Structures can show the parent of a compound that is named as a salt.
Test Readout: viability at 2.19 µM (%)
Just the number please, in %, no unit attached.

Worked set:
Compound	Unit Of Measure	viability at 2.19 µM
CO[C@H]1C[C@@H]2CC[C@@H](C)[C@@](O)(O2)C(=O)C(=O)N2CCCC[C@H]2C(=O)O[C@H]([C@H](C)C[C@@H]2CC[C@@H](OP(C)(C)=O)[C@H](OC)C2)CC(=O)[C@H](C)/C=C(\C)[C@@H](O)[C@@H](OC)C(=O)[C@H](C)C[C@H](C)/C=C/C=C/C=C/1C [Ridaforolimus, ridaforolimus, reference compound]	%	69
O=c1oc2c(O)c(O)cc3c(=O)oc4c(O)c(O)cc1c4c23	%	114
Cc1c(-c2c(F)cc(C(N)=O)c3[nH]c4c(c23)CC[C@H](C(C)(C)O)C4)cccc1-n1c(=O)c2cccc(F)c2n(C)c1=O	%	96.6

Then there is this compound:
Given item CC[C@]1(O)C[C@@H]2CN(CCc3c([nH]c4ccccc34)[C@@](C(=O)OC)(c3cc4c(cc3OC)N(C)[C@H]3[C@@](O)(C(=O)OC)[C@H](OC(C)=O)[C@]5(CC)C=CCN6CC[C@]43[C@@H]65)C2)C1 [Vinblastine sulfate, vinblastine sulfate, reference compound] , the value recorded as its viability at 2.19 µM is 48.5

* * *

Reported viability at 0.1 µM by item:
test system: non-senescent control A549 cells; test: Nuclei count senolytic assay, TIS model, non-senescent control cells; assay type: cell-based, human; conditions: Homo sapiens, A549; log (dose) [M] -7; Control cells; mean; read-out: Mean % Cell Survival
Counter-ions that a name gives are not always drawn.
Just the number please, in %, no unit attached.

Worked set:
Molecule	viability at 0.1 µM (%)
CC[C@]1(O)C[C@@H]2CN(CCc3c([nH]c4ccccc34)[C@@](C(=O)OC)(c3cc4c(cc3OC)N(C)[C@H]3[C@@](O)(C(=O)OC)[C@H](OC(C)=O)[C@]5(CC)C=CCN6CC[C@]43[C@@H]65)C2)C1 [Vinblastine sulfate, vinblastine sulfate, reference compound]	52.9
CO[C@H]1C[C@@H]2CC[C@@H](C)[C@@](O)(O2)C(=O)C(=O)N2CCCC[C@H]2C(=O)O[C@H]([C@H](C)C[C@@H]2CC[C@@H](OCCO)[C@H](OC)C2)CC(=O)[C@H](C)/C=C(\C)[C@@H](O)[C@@H](OC)C(=O)[C@H](C)C[C@H](C)/C=C/C=C/C=C/1C [Everolimus, everolimus, reference compound]	102
O=c1c(O)c(-c2ccc(O)cc2O)oc2cc(O)cc(O)c12	94.4

Then there is this molecule:
Given item Cc1cnc(C(=O)N[C@H]2CCCCC/C=C\[C@@H]3C[C@@]3(C(=O)NS(=O)(=O)C3CC3)NC(=O)[C@@H]3C[C@@H](Oc4nc5ccccc5c5ccccc45)CN3C2=O)cn1 [Paritaprevir, paritaprevir, reference compound] , the value recorded as its viability at 0.1 µM is 95.4

* * *

Reported viability at 0.01 µM by item:
system: senescent IMR90 ER:RAS cells (4-OHT-induced); assay: Nuclei count (Hoechst, high content imaging) senolytic assay, oncogene-induced senescence (OIS) model, senescent cells; format: cell-based, human; settings: Homo sapiens, IMR-90, 72 h, Senescent, log (dose) [M] -8, 72 h, mean n=3 (Fig 3C); read-out: Mean % Cell Survival
Counter-ions that a name gives are not always drawn.
Just the number please, in %, no unit attached.

Worked set:
Compound	viability at 0.01 µM [%]
CO[C@H]1C[C@@H]2CC[C@@H](C)[C@@](O)(O2)C(=O)C(=O)N2CCCC[C@H]2C(=O)O[C@H]([C@H](C)C[C@@H]2CC[C@H](n3cnnn3)[C@H](OC)C2)CC(=O)[C@H](C)/C=C(\C)[C@@H](O)[C@@H](OC)C(=O)[C@H](C)C[C@H](C)/C=C/C=C/C=C/1C [Zotarolimus, zotarolimus, reference compound]	104
CC[C@]1(O)C[C@@H]2CN(CCc3c([nH]c4ccccc34)[C@@](C(=O)OC)(c3cc4c(cc3OC)N(C)[C@H]3[C@@](O)(C(=O)OC)[C@H](OC(C)=O)[C@]5(CC)C=CCN6CC[C@]43[C@@H]65)C2)C1 [Vinblastine sulfate, vinblastine sulfate, reference compound]	92.6
CO[C@H]1C[C@H](O[C@H]2CC[C@@]3(C)[C@H](CC[C@@H]4[C@@H]3CC[C@]3(C)[C@@H](C5=CC(=O)OC5)[C@@H](OC(C)=O)C[C@]43O)C2)O[C@@H](C)[C@@H]1O [Oleandrin, oleandrin]	87.9

Then there is this compound:
Given item C[C@@H]1O[C@@H](O[C@H]2C[C@@H](O)[C@]3(CO)[C@H]4[C@H](O)C[C@]5(C)[C@@H](C6=CC(=O)OC6)CC[C@]5(O)[C@@H]4CC[C@]3(O)C2)[C@H](O)[C@H](O)[C@H]1O [Ouabain, ouabain, reference compound] , the value recorded as its viability at 0.01 µM is 89.4
